Measured pIC50 accompanies every entry in the list below.
- TGT: Matrix metalloproteinase-9 (Homo sapiens, UniProt P14780)
- Sequence (P14780 whole entry): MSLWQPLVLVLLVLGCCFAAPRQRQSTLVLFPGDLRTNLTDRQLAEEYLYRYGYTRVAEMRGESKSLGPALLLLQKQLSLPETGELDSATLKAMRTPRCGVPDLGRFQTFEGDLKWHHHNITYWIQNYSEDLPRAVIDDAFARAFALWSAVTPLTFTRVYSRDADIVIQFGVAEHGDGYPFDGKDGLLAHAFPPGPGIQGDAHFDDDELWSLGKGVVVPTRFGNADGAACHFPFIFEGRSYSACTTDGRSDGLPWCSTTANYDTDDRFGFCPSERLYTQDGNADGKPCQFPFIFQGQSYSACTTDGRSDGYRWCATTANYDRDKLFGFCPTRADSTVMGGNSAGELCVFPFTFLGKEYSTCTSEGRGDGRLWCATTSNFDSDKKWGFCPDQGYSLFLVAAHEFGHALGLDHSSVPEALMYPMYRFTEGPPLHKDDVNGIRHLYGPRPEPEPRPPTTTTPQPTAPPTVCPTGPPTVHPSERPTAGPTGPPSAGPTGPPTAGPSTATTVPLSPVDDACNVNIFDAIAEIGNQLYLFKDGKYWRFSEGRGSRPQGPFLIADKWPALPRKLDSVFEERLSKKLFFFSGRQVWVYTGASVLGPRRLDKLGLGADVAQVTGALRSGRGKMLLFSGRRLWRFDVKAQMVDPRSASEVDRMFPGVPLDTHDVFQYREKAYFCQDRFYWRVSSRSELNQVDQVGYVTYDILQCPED
- PROTOCOL DESCRIPTION: Inhibition of human recombinant MMP9
pIC50: −log10 of the molar value.
PROPERTY MEASURED: pIC50

>>> value_observed("CNC(=O)[C@H](Cc1ccccc1)NC(=O)[C@H](CC(C)C)NC(=O)NO")
4.70
>>> value_observed("CNC(=O)[C@H](Cc1ccccc1)NC(=O)[C@@H](CC(C)C)NC(=O)NO")
3.70
>>> value_observed("CNC(=O)[C@H](Cc1ccccc1)NC(=O)[C@H](CC(=O)NO)CC(C)C")
6.82
>>> value_observed("CNC(=O)[C@H](Cc1ccccc1)NC(=O)[C@@H](CC(=O)NO)CC(C)C")
9.42
